We begin with a simple list: items and their reported neutralization IC50.
target: HIV-1 Env of CM244.ec1 (HIV-1); assay: cell-based or functional assay
Give the value in µg/mL but do not write µg/mL after it.

Consider the reported neutralization IC50 for these binders:
# binder, neutralization IC50, µg/mL
records = [
    ("CAP256-VRC26.08 (antibody, V domains shown) VH: EVQLVESGGGVVQPGRSLTLSCAASQFTFSNYGMHWVRQAPGKGLEWVASVSNDGTKKYHGDSVWGRFTISRDNSKNTLFLQMSSLRAEDTAVYFCVRDQREDECEEWWSDYYDFGRELPCRKFRGLGLAGIFDIWGHGTMVTVSS VL: QSALTQPPSVSAAPGQKVTISCSGNSSNIGNNFVSWYQQVPGTAPKLLLYETYRRPSGIPDRFSGSKSGTSATLAITGLQTGDEADYYCTVWGVRKGVGAVFGTGTKVTVLG", 1.09),
    ("CAP256-VRC26.10 (antibody, V domains shown) VH: QAILVESGGGVVQPGRSLRLSCAASQFTFSGHGLHWVRQAPGKGLEWVASISFAGTKMDYADSVKGRFAISRDNSKNTLYLQMNSLRVEDTALYYCAKDMREYECEYWTSDYYDFGRPQPCIDRRGVVGIFDMWGQGTMVTVST VL: QSVLTQPPSVSAAPGQKVTISCSGSSSNIGDNYVSWYQHLPGTAPKLLIYENTRRPSGIPDRFSGSKSGTSATLAITGLQTGDEADYYCGTWDVRPNRGAVFGTGTKVTVLG", 0.914),
]

Next up:
[ask] Which value of neutralization IC50 has been reported for CAP256-VRC26.03 (antibody, V domains shown) VH: EVQLVESGGGVVQPGKSLRLSCAASRFSFNRYGMHWVRQAPGKGLEWVAAISYDGTDKYHADKVWGRFTISRDNSKNTLYLQMNSLRAEDTALYYCAKDLREDECEEWWSDYYDFGKQLPCRKSRGVAGIFDGWGQGTMVTVSS VL: QSVLTQPPSVSAAPGQKVTISCSGSSSNIGNNFVSWYQQRPGTAPKILIYENNKRPSETPDRFSGSKSGTSATLAITGLQTADEAEYYCATWSASLSSARVFGTGTRITVLG in the records?
[reply] 0.003

// data source = patent US20200199204A1
